Listed compounds paired with reported %Inh
- System: TSSK1B
- condition.label: concentration: 1 μM, replicates: in singlicate; n = 1;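 note: KINOMEscan kinase panel screen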
Answer format: numeric, % implied, no suffix.

Example entries and their recorded answers appear below.
compound: CN1c2ccc(CNc3ccc(F)cc3)cc2-c2c(cnn2C)S1(=O)=O
assay.target: TSSK1B
parameter.measured: %Inh
units.label: %
data.value: 0
--
compound: N#Cc1c(N2CCOCC2)sc(-c2ccn[nH]2)c1-c1ccc(Cl)cc1
assay.target: TSSK1B
parameter.measured: %Inh
units.label: %
data.value: 0
--
compound: CNc1ncnc2[nH]ncc12 [SKF-18355]
assay.target: TSSK1B
parameter.measured: %Inh
units.label: %
data.value: 0

Documented %Inh of Cc1cn2c(=O)cc(N3CCOCC3)nc2n1Cc1cccc(Cl)c1Cl [GSK2334006] : 29

Documented %Inh of Cc1c2ccc(N(C)c3ccnc(Nc4cccc(S(N)(=O)=O)c4)n3)cc2nn1Cc1ccccc1.Cl.Cl [GW787226] : 1

---

- System: MAPKAPK2
- condition.label: concentration: 1 μM, replicates: in singlicate; n = 1
If the reported %Inh equals or exceeds 3%, assign Y. If not, assign N.

Before answering, review these 2 worked examples.
molecule: CSc1ccc(-c2cc3ncnc(SCC(=O)O)c3s2)cc1
assigned.class: N

molecule: Cc1cccc(-c2nc(Nc3ccc4ncsc4c3)c3ccccc3n2)n1 [GW867588]
assigned.class: N

Confirm if %Inh reported for the molecule COc1ccc(COc2cc(-n3cnc4ccccc43)sc2C(N)=O)cc1 [GSK1024304] is 3% or above.
N

Confirm if %Inh reported for the molecule c1ccc(-c2n[nH]cc2-c2ccnc3ccccc23)nc1 [GW271431] is 3% or above.
Y

Confirm if %Inh reported for the molecule Cc1ccc(NC(=O)c2ccnc(N3CCN(C)CC3)c2)cc1-c1ccc(C(=O)NCC2CC2)cc1 [GW775604] is 3% or above.
N

Confirm if %Inh reported for the molecule `CCc1ccnc(/C=C/c2n[nH]c3cc(Sc4ccccc4C(=O)NC)ccc23)c1` is 3% or above.
N

Confirm if %Inh reported for the molecule `COc1cc2c(cc1OCCN1CCN(C)CC1)ncc1c3ccc(C#N)cc3[nH]c21` is 3% or above.
N

Confirm if %Inh reported for the molecule O=C(NCCCN1CCOCC1)c1cccc(Nc2nccc(Nc3ccc(Oc4ccccc4)cc3)n2)c1 [GW663929] is 3% or above.
N

Confirm if %Inh reported for the molecule O=C(NCCNc1ccnc(Nc2ccc(F)cc2)n1)Nc1ccccc1F [GSK1379880] is 3% or above.
Y

Confirm if %Inh reported for the molecule COc1ccc(Nc2ncc(C#N)c(Nc3ccccc3C(N)=O)n2)cc1N1CCN(C)CC1.Cl [GSK1558669] is 3% or above.
N

Confirm if %Inh reported for the molecule Cc1cn2c(=O)cc(N3CCOCC3)nc2n1Cc1cccc(Cl)c1Cl [GSK2334006] is 3% or above.
Y

Confirm if %Inh reported for the molecule COC(=O)Nc1nc2cc(Oc3ccc(NC(=O)Nc4cc(F)ccc4F)cc3)ccc2[nH]1.Cl [GW701424] is 3% or above.
Y

---

- Test system: BLK
- condition.label: concentration: 1 μM, replicates: in singlicate; n = 1
Listed compounds paired with reported %Inh
Answer format: numeric, % implied, no suffix.

Example entries and their recorded answers appear below.
compound: O=c1cc(N2CCOCC2)nc2n(Cc3cccc(Cl)c3Cl)c(C3CC3)nn12 [GSK2358994]
data.value: 0
--
compound: O=c1cc(N2CCOCC2)nc2n(Cc3cccc4ccccc34)ccn12 [GSK2333389]
data.value: 21
--
compound: [2H]C([2H])(c1cccc(C(F)(F)F)c1C)n1ccn2c(=O)nc(N3CCOCC3)cc12 [GSK2336394]
data.value: 25

Assay BLK, sample `Cc1ccc(C(=O)NCC(N)=O)cc1-n1c(C)cc(OCc2ccc(F)cc2F)c(Br)c1=O` , %Inh read: 14

Assay BLK, sample Fc1ccc(-c2ncn(CCCN3CCOCC3)c2-c2ccccn2)cc1 [SB-211742] , %Inh read: 9

Assay BLK, sample O=C(Nc1cccc(-c2nn3ncccc3c2-c2ccnc(Nc3cccc(C(F)(F)F)c3)n2)c1)c1c(F)cccc1F [GSK299495] , %Inh read: 95.9

Assay BLK, sample c1ccc(-c2cc(-c3c[nH]nc3-c3ccccn3)ccn2)cc1 [GW576604] , %Inh read: 37

Assay BLK, sample `Cc1cccc(-c2nc(-c3ccc(S(C)(=O)=O)cc3)sc2-c2ccncc2)c1` , %Inh read: 0

Assay BLK, sample Fc1ccc(-c2ncn(CCCN3CCOCC3)c2-c2cccnc2)cc1 [SB-211743] , %Inh read: 16

Assay BLK, sample `O=C1Cc2cc(Nc3nc(NCc4cccc(S(=O)(=O)C(F)(F)F)c4)ncc3C(F)(F)F)ccc2N1` , %Inh read: 1

Assay BLK, sample Nc1nccc(-c2c(-c3ccc(F)cc3)ncn2C2CCN(CC(F)(F)F)CC2)n1 [SB-236560] , %Inh read: 0

Assay BLK, sample `N#Cc1c(N2CCOCC2)sc(-c2ccn[nH]2)c1-c1ccc(Cl)cc1` , %Inh read: 0

Assay BLK, sample COc1ccc(Nc2ncc(C#N)c(Nc3ccccc3C(N)=O)n2)cc1N1CCN(C)CC1.Cl [GSK1558669] , %Inh read: 99.8

Assay BLK, sample CC(C)(C)n1cnc2c(N)ncnc21 [SKF-97359] , %Inh read: 0

Assay BLK, sample Cc1c(Cn2c(C)nn3c(=O)cc(N4CCOC(C)C4)nc23)cccc1C(F)(F)F (stereo not drawn) [GSK2344444] , %Inh read: 25

Assay BLK, sample Cc1nnc(-c2ccc3ncc(-c4ccc(S(C)=O)cc4)n3c2)o1 (stereo not drawn) , %Inh read: 0

Assay BLK, sample NS(=O)(=O)CCc1cccc(Nc2nccc(-c3c(-c4cccc(NC(=O)c5c(F)cccc5F)c4)nn4ccccc34)n2)c1 [GSK336735] , %Inh read: 99.7

Assay BLK, sample O=C(NCCNc1ccnc(Nc2ccc(F)cc2)n1)c1cc2ccccc2s1 [GSK1379874] , %Inh read: 23

---

- Test system: MET
- condition.label: concentration: 1 μM, replicates: in singlicate; n = 1
parameter.measured: %Inh (%)
Answer format: numeric, % implied, no suffix.

Documented %Inh of C[C@@H](Oc1cc(-n2cnc3ccc(NC(=O)NC(C)(C)C)cc32)sc1C(N)=O)c1ccccc1Cl [GSK346294] : 0

Documented %Inh of Cl.Oc1cccc(Nc2ccnc3cc(-c4ccncc4)ccc23)c1 [GW494601] : 0

Documented %Inh of O=C1NC(=O)C(N2CCc3ccccc32)=C1c1cccc(Cl)c1 [SB-408010] : 0

Documented %Inh of `CCc1nc(-c2cccc(C)c2)c(-c2ccnc(NCc3ccccc3)c2)s1` : 0

Documented %Inh of CCn1cnc2c(N)ncnc21 [GW345098] : 2

Documented %Inh of Cc1cccc(Cn2ccn3c(=O)cc(N4CCOCC4)nc23)c1 [GSK2297542] : 23

Documented %Inh of O=c1cc(N2CCOCC2)nc2n(Cc3cccc(Cl)c3Cl)c(C3CC3)nn12 [GSK2358994] : 0

Documented %Inh of `N#Cc1c(N2CCOCC2)sc(-c2ccn[nH]2)c1-c1ccc(Cl)cc1` : 0

Documented %Inh of Cc1nnc(-c2ccc(C)c(-c3ccc(C(=O)Nc4ccc(NS(C)(=O)=O)cc4)cc3)c2)o1 [GW702865] : 12

---

- Tested on: KIT
- condition.label: concentration: 1 μM, replicates: in singlicate; n = 1
Listed molecules paired with reported %Inh
Answer format: numeric, % implied, no suffix.

Documented %Inh of Cc1nnc(-c2ccc3occ(-c4ccc(C(C)O)cc4)c3c2)o1 (stereo not shown) : 11

Documented %Inh of COc1ccc(Nc2nccc(N3CCC(NC(=O)Nc4cc(C)ccc4C)C3)n2)cc1 (stereo not shown) : 25

Documented %Inh of `Cc1cccc(-c2nc(-c3ccc(S(C)(=O)=O)cc3)sc2-c2ccncc2)c1` : 18

Documented %Inh of `CN1c2ccc(NCc3ccc(F)cc3)cc2-c2c(cnn2C)S1(=O)=O` : 24

Documented %Inh of `O=C(NCCNc1ccnc(Nc2ccc(F)cc2)n1)c1cc2ccccc2s1` : 0

Documented %Inh of `O=C(Nc1n[nH]c2cc(-c3cccc(F)c3)ccc12)C1CC1` : 33

Documented %Inh of `COc1ccc(Nc2ncc(C#N)c(Nc3ccccc3C(N)=O)n2)cc1N1CCN(C)CC1.Cl` : 99.9

---

- Tested on: ACVR1B
- condition.label: concentration: 1 μM, replicates: in singlicate; n = 1
parameter.measured: %Inh

compound: Fc1ccc(-c2ncn(CCCN3CCOCC3)c2-c2cccnc2)cc1 [SB-211743]
data.value: 0%
--
compound: Cc1nnc(-c2ccc3occ(-c4ccc(C(C)O)cc4)c3c2)o1 (stereo not drawn)
data.value: 14%
--
compound: COc1ccc(S(=O)(=O)NC2CCN(c3cc(C)nc(Nc4cccc(C#N)c4)n3)CC2)cc1.O=C(O)C(F)(F)F [GSK1653539]
data.value: 0%
--
compound: CCc1ccnc(/C=C/c2n[nH]c3cc(Sc4ccccc4C(=O)NC)ccc23)c1
data.value: 3%
--
compound: CN1c2ccc(NCc3ccc(F)cc3)cc2-c2c(cnn2C)S1(=O)=O
data.value: 0%
--
compound: COc1cc2c(cc1OC[C@@H](O)CO)ncc1c3ccc(C#N)cc3[nH]c21
data.value: 0%
--
compound: CNc1ncnc2[nH]ncc12 [SKF-18355]
data.value: 4%
--
compound: COc1ccc(Nc2nccc(N3CCC(NC(=O)Nc4cccc(C(C)=O)c4)C3)n2)cc1 (stereo not drawn) [GSK1379731]
data.value: 0%
--
compound: COc1cc2c(cc1OCCN1CCN(C)CC1)ncc1c3ccc(C#N)cc3[nH]c21
data.value: 0%
--
compound: Cc1ccc(NC(=O)c2ccnc(N3CCN(C)CC3)c2)cc1-c1ccc(C(=O)NCC2CC2)cc1 [GW775604]
data.value: 0%

Documented %Inh of COCCNC(=O)c1ccc(-c2cc(C(=O)NC3CC3)cc(F)c2C)cc1 [GW868318] : 17%

Documented %Inh of C[C@@H](Oc1cc(-n2cnc3ccc(NC(=O)NC(C)(C)C)cc32)sc1C(N)=O)c1ccccc1Cl [GSK346294] : 0%

Documented %Inh of CC(C)Oc1ccc2c(-c3ccnc(Nc4ccc(N5CCN(C)CC5)cc4)n3)cnn2n1 [GW696155] : 0%

Documented %Inh of N#Cc1ccc(-c2cc(-c3c[nH]nc3-c3ccccn3)ccn2)cc1 [GW693028] : 56%

Documented %Inh of O=C1NC(=O)C(N2CCc3ccccc32)=C1c1cccc(Cl)c1 [SB-408010] : 14%

Documented %Inh of Cc1cccc(Cn2ccn3c(=O)cc(N4CCOCC4)nc23)c1 [GSK2297542] : 0%

Documented %Inh of `Cn1ccc2ncnc(Oc3ccc(NC(=O)Nc4ccncc4)c(Cl)c3)c21` : 23%

Documented %Inh of O=C(NCCNc1ccnc(Nc2ccc(F)cc2)n1)c1cc2ccccc2s1 [GSK1379874] : 0%
